The reported measurements were obtained from the supplement of paper PMC7411054.

Test system: WPMY1-TUBA1B-RELA
Assay: phenotypically active (imaging signature differs from DMSO and reproducible) at any of 0.3-9 uM (binary (1 = active, 0 = inactive)); higher = active
Settings: treatment time: 24 h
EXPERIMENTAL_ENDPOINT: phenotypically active

1. N[C@@H](CSC(c1ccccc1)(c1ccccc1)c1ccccc1)C(=O)O [S-Trityl-L-cysteine]	0
2. O=[N+]([O-])c1cc([N+](=O)[O-])c(/C=C/c2ccc(Cl)c(Cl)c2)cc1/C=C/c1ccc(Cl)c(Cl)c1	0
3. Cc1ccc(NC2=CC(=O)c3sc(C)nc3C2=O)cc1 [Ryuvidine]	1
4. Clc1ccc(N/N=C(\c2ccccc2)c2ccccn2)nc1	1
5. O=C(Cn1ccnc1[N+](=O)[O-])NCc1ccccc1 [benznidazole]	0
6. CCc1ccc(/C=C/C(=O)Nc2ccc(C(C)=O)cc2)o1 [Heclin]	0
7. CCCCCC1CC1CC1CC1CCCCCCCC(=O)O (stereo not drawn)	0
8. CCC1(c2ccccc2)C(=O)NCNC1=O [primidone]	0
9. COP(=O)(OC)OC(c1ccc(Cl)cc1)P(=O)(OC)OC (stereo not drawn)	0
10. Oc1cc(O)c2c(c1)O[C@H](c1ccc(O)c(O)c1)[C@@H](O)C2 [Epicatechin-(-)]	0
11. Fc1ccc([C@@H]2CCNC[C@H]2COc2ccc3c(c2)OCO3)cc1 [paroxetine]	1
12. COc1ccc2c(c1)N(C(C)=O)[C@H]1[C@@H]3CO[C@H](C)[C@@H]4CN5CC[C@]21[C@@H]5C[C@H]34 [Strychnospermine]	0
13. CC(C)NCCCC1(C(N)=O)c2ccccc2-c2ccccc21 [indecainide]	0
14. CC(=O)O[C@@H]1C[C@H]2C(C)(C)C(=O)C=C[C@]2(C)[C@H]2CC[C@@]3(C)[C@H](c4ccoc4)OC(=O)[C@H]4O[C@]43[C@@]21C [gedunin]	0
15. CC(C)(C)NC(=O)[C@@H]1CN(Cc2cccnc2)CCN1C[C@@H](O)C[C@@H](Cc1ccccc1)C(=O)N[C@H]1c2ccccc2C[C@H]1O [indinavir]	0
16. Cc1nc2sccn2c(=O)c1CCN1CCC(=C(c2ccc(F)cc2)c2ccc(F)cc2)CC1 [Ritanserin]	0
17. CC(=O)NC1=NN(C(C)=O)C(C)(c2ccccc2)S1 (stereo not drawn)	1
18. Cc1cccc(-c2n[nH]cc2-c2ccc(F)c(-c3cnn(CCO)c3)c2)n1	1

###

The following molecules are shown together with reported lowest phenotypically active concentration values.
Test system: WPMY1-TUBA1B-RELA
Test: lowest phenotypically active concentration; higher = less potent
Details: treatment time: 24 h
EXPERIMENTAL_ENDPOINT: lowest phenotypically active concentration (µM)

1. c1ccc2c(c1)Cc1c(Nc3ccc4c(c3)OCCO4)n[nH]c1-2	3
2. O=C(OC12CC3CC(CC(C3)C1)C2)c1ccc(NCc2cc(O)ccc2O)cc1 [Adaphostin]	1
3. O=S(c1ccccc1)c1ccc2nnnn2n1 (stereo not drawn)	9
4. CCCCOc1c(C(=O)c2c(F)cc(C)cc2F)cnc2[nH]ncc12	3
5. CSc1ccc2c(c1)N(CCC1CCCCN1C)c1ccccc1S2 (stereo not drawn) [thioridazine]	9
6. COc1ccc(N2C(=O)CSC2c2cccc(Br)c2)c(OC)c1 (stereo not drawn)	3

###

Tested on: HepG2-ACTB-RAB5A
Assay: phenotypically active (imaging signature differs from DMSO and reproducible) at any of 0.3-9 uM (binary (1 = active, 0 = inactive)); higher = active
Details: treatment time: 24 h
Labels: active, inactive

1. C[C@H](CCC(=O)NCC(=O)O)[C@H]1CC[C@H]2[C@@H]3[C@H](O)C[C@@H]4C[C@H](O)CC[C@]4(C)[C@H]3C[C@H](O)[C@]12C [Glycocholic acid]	inactive
2. Clc1ccc(C2(c3ccc(-c4cn[nH]c4)cc3)CCNCC2)cc1	active
3. Nc1ccc(N=Nc2ccccc2)c(N)n1 [phenazopyridine]	inactive
4. C[C@]1(O)C[C@@H](c2nc(-c3ccc4ccc(-c5ccccc5)nc4c3)c3c(N)nccn32)C1 [linsitinib]	active
